Target: T1, recombinant human ADAMTS5 (R&D Systems cat #2198-AD) (human, UniProt Q9UNA0 262-622, limits assumed)
T1 sequence: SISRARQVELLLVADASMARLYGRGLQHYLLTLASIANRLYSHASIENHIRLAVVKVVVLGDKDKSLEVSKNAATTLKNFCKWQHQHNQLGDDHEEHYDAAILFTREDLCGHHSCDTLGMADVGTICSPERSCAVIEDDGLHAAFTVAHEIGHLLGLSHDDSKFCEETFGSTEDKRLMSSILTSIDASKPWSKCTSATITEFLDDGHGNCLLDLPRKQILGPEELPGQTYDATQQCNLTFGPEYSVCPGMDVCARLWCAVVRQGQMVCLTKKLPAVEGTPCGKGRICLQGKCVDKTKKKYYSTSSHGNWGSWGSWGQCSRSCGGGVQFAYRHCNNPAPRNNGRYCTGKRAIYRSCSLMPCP
Assay: cell-based or functional assay
Below, each entry is listed with its recorded FRET assay vi (U/min), periplasmic extract.
endpoint_label: FRET assay vi (U/min), periplasmic extract

binder: Nanobody 2D12 (VHH, tagged as tested (anti-Flag detection, IMAC); also called 02D12) VHH: EVQLVESGGGLVQAGDSLRLSCAASGRTFSTYFVGWFRQAPGKERDFVAAISRNGARTYYYDSVAGLFTISRDNAKNTVYLQMSSLKPEDTAVYYCAAARISPSDPSNEDGYDYWGQGTLVTVSS
result: 2 U/min

binder: Nanobody 9A05 (VHH) VHH: EVQLVESGGGFVQAGGSLRLSCAASRRTISSGTMGWFRQAPGKEREFVAAIRWSSGITFYPDSVEGRFTISGDNAKNTVSLQMNSLKPEDTAVYYCAADRSALRDPSFEVNYEYWGRGTLVTVSS
result: -3 U/min
